protocol-details: Pharmacokinetics in monkey plasma after oral dosing
Assay type: in vivo
test-parameters: cynomolgus, oral 40 mg/kg, day 14, read-out: AUC(0–12 h)
measured-metric: AUC(0-t) (µM·h)

smiles_entry=Cl.O=C(O)[C@@H](Cc1ccccc1)[C@H]1CCNC1 observed_result=210

###

test-target: apo(a) KIV7–8 (Homo sapiens)
Construct: purified recombinant apo(a) KIV7–8 protein; made in house
protocol-details: Radioligand binding to apo(a) KIV7–8
test-parameters: direct radioligand binding; read-out: Kd, KIV7–8
measured-metric: Kd (nM)

compound="O=C(Nc1cccc(C[C@H](C(=O)O)[C@H]2CCNC2)c1)Nc1cccc(C[C@H](C(=O)O)[C@H]2CCNC2)c1 [^3H-LSN3441732]" test_target="apo(a) KIV7–8 (Homo sapiens)" measured_metric=Kd unit_string=nM observed_result=0.21

###

test-target: apo(a) KIV7 (Homo sapiens, UniProt P08519)
Construct: made in house
protocol-details: Radioligand binding to apo(a) KIV7
test-parameters: radioligand binding, Experiment 2; read-out: Kd (nM) KIV7 Exp 2
measured-metric: Kd (nM)

smiles_entry=O=C(Nc1cccc(C[C@H](C(=O)O)[C@H]2CCNC2)c1)Nc1cccc(C[C@H](C(=O)O)[C@H]2CCNC2)c1 test_target="apo(a) KIV7 (Homo sapiens, UniProt P08519)" measured_metric=Kd observed_result=2.7

###

protocol-details: Pharmacokinetics in monkey plasma after oral dosing
Assay type: in vivo
test-parameters: cynomolgus, oral 10 mg/kg, day 14, read-out: AUC(0-96 hr)
measured-metric: AUC(0-t) (µM·h)

smiles_entry=Cl.Cl.O=C(Nc1cccc(C[C@H](C(=O)O)[C@H]2CCNC2)c1)Nc1cccc(C[C@H](C(=O)O)[C@H]2CCNC2)c1 measured_metric=AUC(0-t) observed_result=22.2

###

test-target: apo(a) KIV5–8 (Homo sapiens)
Construct: made in house
protocol-details: Radioligand binding to apo(a) KIV5–8
test-parameters: Experiment 1, read-out: Kd (nM) KIV5–8 Exp 1
Procedure: The nucleotide sequence encoding the human LPA gene (NP_005568.2) was inserted into a mammalian expression vector containing a cytomegalovirus promoter. Protein expression was performed by transient transfection of human embryonic kidney 293 (HEK293) cells cultured in serum-free medium. The culture medium was collected five days after transfection and human apo(a) protein was purified using L-lysine affinity chromatography. […] All protein concentrations were determined by A280. […]
measured-metric: Kd

compound="O=C(Nc1cccc(C[C@H](C(=O)O)[C@H]2CCNC2)c1)Nc1cccc(C[C@H](C(=O)O)[C@H]2CCNC2)c1 [^3H-LSN3441732]" measured_metric=Kd observed_result="0.33 nM"

###

protocol-details: Pharmacokinetics in monkey plasma after oral dosing
Type: in vivo
test-parameters: Chinese cynomolgus, oral 10 mg/kg, day 15
measured-metric: Tmax (min)

smiles_entry=O=C(O)[C@@H](Cc1cccc(CN(Cc2cccc(C[C@H](C(=O)O)[C@H]3CCNC3)c2)Cc2cccc(C[C@H](C(=O)O)[C@H]3CCNC3)c2)c1)[C@H]1CCNC1 measured_metric=Tmax observed_result=30

###

protocol-details: Pharmacokinetics in monkey plasma after oral dosing
Assay type: in vivo
test-parameters: Chinese cynomolgus, oral 1 mg/kg, day 15
measured-metric: Tmax (h)

smiles_entry=O=C(O)[C@@H](Cc1cccc(CN(Cc2cccc(C[C@H](C(=O)O)[C@H]3CCNC3)c2)Cc2cccc(C[C@H](C(=O)O)[C@H]3CCNC3)c2)c1)[C@H]1CCNC1 observed_result=7

###

protocol-details: Pharmacokinetics in monkey plasma after oral dosing
Assay type: in vivo
test-parameters: Chinese cynomolgus, oral 1 mg/kg, day 15, read-out: AUC(0-96 hr)
measured-metric: AUC(0-t) (µM·h)

smiles_entry=O=C(O)[C@@H](Cc1cccc(CN(Cc2cccc(C[C@H](C(=O)O)[C@H]3CCNC3)c2)Cc2cccc(C[C@H](C(=O)O)[C@H]3CCNC3)c2)c1)[C@H]1CCNC1 measured_metric=AUC(0-t) unit_string=µM·h observed_result=35.8

###

protocol-details: Pharmacokinetics in monkey plasma after oral dosing
Format: in vivo
test-parameters: Chinese cynomolgus, oral 1 mg/kg, day 15
measured-metric: Cmax (nM)

smiles_entry=O=C(O)[C@@H](Cc1cccc(CN(Cc2cccc(C[C@H](C(=O)O)[C@H]3CCNC3)c2)Cc2cccc(C[C@H](C(=O)O)[C@H]3CCNC3)c2)c1)[C@H]1CCNC1 unit_string=nM observed_result=911

###

test-target: apo(a) KIV7–8 (Homo sapiens)
Construct: purified recombinant apo(a) KIV7–8 protein; made in house
Sequence (P08519 1263-1470 limits assumed): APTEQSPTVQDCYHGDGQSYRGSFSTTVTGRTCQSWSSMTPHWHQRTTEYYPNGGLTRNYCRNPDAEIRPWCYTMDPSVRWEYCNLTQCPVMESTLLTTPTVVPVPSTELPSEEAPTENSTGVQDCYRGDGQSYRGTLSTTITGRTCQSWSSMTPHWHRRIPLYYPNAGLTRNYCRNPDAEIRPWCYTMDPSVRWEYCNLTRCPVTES
protocol-details: Radioligand binding to apo(a) KIV7–8
test-parameters: radioligand binding, Experiment 1; read-out: Kd (nM) KIV7–8 Exp 1
measured-metric: Kd (nM)

compound="O=C(Nc1cccc(C[C@H](C(=O)O)[C@H]2CCNC2)c1)Nc1cccc(C[C@H](C(=O)O)[C@H]2CCNC2)c1 [^3H-LSN3441732]" observed_result=0.32

###

protocol-details: Pharmacokinetics in monkey plasma after oral dosing
Assay type: in vivo
test-parameters: Chinese cynomolgus, oral 100 mg/kg, day 15
measured-metric: Cmax (µM)

smiles_entry=O=C(O)[C@@H](Cc1cccc(CN(Cc2cccc(C[C@H](C(=O)O)[C@H]3CCNC3)c2)Cc2cccc(C[C@H](C(=O)O)[C@H]3CCNC3)c2)c1)[C@H]1CCNC1 measured_metric=Cmax observed_result=4.85

###

test-target: apo(a) KIV8 (Homo sapiens)
Construct: made in house
Sequence (P08519 1387-1465 limits assumed): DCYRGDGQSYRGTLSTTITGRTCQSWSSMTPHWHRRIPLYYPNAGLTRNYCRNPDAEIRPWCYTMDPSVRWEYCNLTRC
protocol-details: Radioligand binding to apo(a) KIV8
test-parameters: radioligand binding, Experiment 1; read-out: Kd (nM) KIV8 Exp 1
measured-metric: Kd (nM)

smiles_entry=O=C(Nc1cccc(C[C@H](C(=O)O)[C@H]2CCNC2)c1)Nc1cccc(C[C@H](C(=O)O)[C@H]2CCNC2)c1 observed_result=3

###

protocol-details: Pharmacokinetics in monkey plasma after oral dosing
Type: in vivo
test-parameters: cynomolgus, oral 20 mg/kg, day 14
measured-metric: Tmax (h)

smiles_entry=Cl.O=C(O)[C@@H](Cc1ccccc1)[C@H]1CCNC1 observed_result=1.5

###

protocol-details: Pharmacokinetics in monkey plasma after oral dosing
Assay type: in vivo
test-parameters: cynomolgus, oral 2 mg/kg, day 14
measured-metric: Tmax (h)

smiles_entry=Cl.Cl.O=C(Nc1cccc(C[C@H](C(=O)O)[C@H]2CCNC2)c1)Nc1cccc(C[C@H](C(=O)O)[C@H]2CCNC2)c1 observed_result=3.81

###

protocol-details: Pharmacokinetics in monkey plasma after oral dosing
Type: in vivo
test-parameters: cynomolgus, oral 2 mg/kg, day 14
measured-metric: Cmax (nM)

smiles_entry=Cl.Cl.O=C(Nc1cccc(C[C@H](C(=O)O)[C@H]2CCNC2)c1)Nc1cccc(C[C@H](C(=O)O)[C@H]2CCNC2)c1 observed_result=754

###

protocol-details: Pharmacokinetics in monkey plasma after oral dosing
Type: in vivo
test-parameters: cynomolgus, oral 10 mg/kg, day 14
measured-metric: Tmax (h)

molecule="Cl.Cl.O=C(Nc1cccc(C[C@H](C(=O)O)[C@H]2CCNC2)c1)Nc1cccc(C[C@H](C(=O)O)[C@H]2CCNC2)c1 [LSN3441732]" measured_metric=Tmax unit_string=h observed_result=2.06

###

protocol-details: Drug concentration in mouse blood after oral dosing
Type: in vivo
test-parameters: female, whole blood (dried blood spots), oral 3 mg/kg, day 5, read-out: Drug concentration, 4-h time point
measured-metric: concentration at 4 h (nM)

smiles_entry=O=C(O)[C@@H](Cc1cccc(CN(Cc2cccc(C[C@H](C(=O)O)[C@H]3CCNC3)c2)Cc2cccc(C[C@H](C(=O)O)[C@H]3CCNC3)c2)c1)[C@H]1CCNC1 measured_metric="concentration at 4 h" observed_result=97.3
smiles_entry=Cl.Cl.O=C(Nc1cccc(C[C@H](C(=O)O)[C@H]2CCNC2)c1)Nc1cccc(C[C@H](C(=O)O)[C@H]2CCNC2)c1 measured_metric="concentration at 4 h" observed_result=432
smiles_entry=Cl.O=C(O)[C@@H](Cc1ccccc1)[C@H]1CCNC1 measured_metric="concentration at 4 h" observed_result=13600

###

test-target: full-length recombinant 16K apo(a) (Homo sapiens, UniProt P08519)
Construct: Full-length apo(a) and various shorter constructs were prepared as described
protocol-details: Radioligand binding to full-length recombinant 16K apo(a)
test-parameters: direct radioligand binding, mean
pKd: −log10 of the molar value.
measured-metric: pKd

compound="O=C(Nc1cccc(C[C@H](C(=O)O)[C@H]2CCNC2)c1)Nc1cccc(C[C@H](C(=O)O)[C@H]2CCNC2)c1 [^3H-LSN3441732]" test_target="full-length recombinant 16K apo(a) (Homo sapiens, UniProt P08519)" measured_metric=pKd observed_result=10.30
